biological target: T1, human GCGR (full-length glucagon receptor of 477 amino acids) (human, UniProt P47871 26-477); assay: competitive cell ELISA on GCGR-overexpressing CHO cells, biotin-labeled against unlabeled antibody; competitor hu1810-12
T1 construct: Expressed from a full-length plasmid on CHO / CHO-K1 cells; also called hGCGR
T1 sequence (P47871 26-477 limits assumed): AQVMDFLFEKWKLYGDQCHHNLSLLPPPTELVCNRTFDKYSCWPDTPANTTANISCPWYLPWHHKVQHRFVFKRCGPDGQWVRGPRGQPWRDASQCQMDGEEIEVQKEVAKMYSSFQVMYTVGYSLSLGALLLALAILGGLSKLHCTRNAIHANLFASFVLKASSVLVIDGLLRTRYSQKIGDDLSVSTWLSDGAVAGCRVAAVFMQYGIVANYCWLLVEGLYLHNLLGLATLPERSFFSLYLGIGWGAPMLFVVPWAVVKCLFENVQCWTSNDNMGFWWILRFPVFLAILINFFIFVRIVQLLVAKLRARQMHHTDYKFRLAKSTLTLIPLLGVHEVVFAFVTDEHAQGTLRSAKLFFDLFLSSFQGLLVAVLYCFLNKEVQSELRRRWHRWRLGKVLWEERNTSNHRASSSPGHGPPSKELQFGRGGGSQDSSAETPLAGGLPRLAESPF
Each entry below lists one item and its recorded competition efficiency IC % value.
Field format: number, assumed %, no unit text.

As a guide, the following entries are already answered.
BINDER	VALUE UNITS	competition efficiency IC %
hu1810-12 (antibody, human IgG4 S228P, kappa, F234A L235A, V domains shown, IgG4-AA / kappa humanized antibody; also called hu1810_VH.1C + hu1810_VL.1B) VH: QVQLVQSGAEVKKPGSSVKVSCKASGGTFSNYAISWVKQAPGQGLEWIGEIYPTSGNTYYNEKFKGKATLTADRSTSTMYMELSSLRSEDTAVYYCASGVITTVVSTDYFDYWGQGTLVTVSS VL: DIQMTQSPSSLSASVGDRVTITCRASLDISNYLNWYQLKPGKAVKLLIYYTSTLHSGVSSRFSGSGSGTEYTLTISSLQPEDFATYYCQQGNMVPYTFGGGTKVEIKR	%	100
ch1808 (antibody, human IgG4 S228P, kappa, F234A L235A, V domains shown, IgG4-AA / kappa chimeric antibody) VH: QVQLQQSGAELARPGASVKLSCKASGDTFTTNGISWVKQRIGQGLEWIGEIYPRSGNTYYNENFKGKATLTADKSSTTAYMELRRLTSEDSAVYFCARSITSVIGADYFDYWGQGTTLTVSS VL: DIQMTQTTSSLSASLGDRVTISCRASQDISNYLNWYQKKPDGTVKLLIYYSSTLHSGVPSRFSGSGSGTDYSLTISNLEQEDIATYFCQQGNTFPWTFGGGTKLEIKR	%	54.3

Task item: Look up competition efficiency IC % for this binder: hu1803-9 (antibody, human IgG4 S228P, kappa, F234A L235A, V domains shown, IgG4-AA / kappa humanized antibody; also called hu1803_VH.1 + hu1803_VL.1B; GCGR monoclonal antibody) VH: EVQLVQSGAEVKKPGASVKVSCKASGYTFTDYWIEWVRQAPGQGLEWMGEILPGSTYTNYNEKFKGRVTMTRDTSTSTVYMELSSLRSEDTAVYYCARGLSTLMAVDYFDYWGQGTTVTVSS VL: DIQMTQSPSSLSASVGDRVTITCRASQDISNYLNWYQQKPGKAVKLLIYYSSTLHSGVPSRFSGSGSGTDYTLTISSLQPEDFATYYCQQTNIFPWTFGGGTKVEIKR
Reply: 100

All values here come from patent US20220153853A1.
